# ASSAY_COMMENT: Metabolic stability in human liver microsomes
# Assay type: in vitro ADME
# CONDITION_CONTEXT: 0.5 μM test substance, NADPH, 37° C., scaled microsomal clearance, examples marked * tested as fumarate salts
ATTRIBUTE_MEASURED: human mCl

Consider the worked cases shown below.
CN[C@H]1COc2cc(F)c(N3CC(NS(=O)(=O)c4cn(C)cn4)C3)cc2[C@@H]1Cc1ccccc1 (relative stereo) [Example 15b]    ≦5 L/h/Kg
Cn1cnc(S(=O)(=O)NC2CN(c3ccc4c(c3)C(Cc3ccccc3)C(N3CCC3)CO4)C2)c1 (stereo not shown)    ≦5 L/h/Kg
CCCS(=O)(=O)NC1CN(c2ccc3c(c2)C(Cc2ccccc2)C(NC)CO3)C1 (single isomer, unassigned) [Example 23]    ≦50 L/h/Kg
O=S(=O)(NC1CN(c2cc3c(cc2F)OC[C@@H](N2CCC2)[C@H]3Cc2ccccc2)C1)c1cncc(F)c1 (relative stereo)    ≦50 L/h/Kg
CCS(=O)(=O)NC1CN(c2ccc3c(c2)[C@H](Cc2ccccc2)[C@H](N2CCC2)CO3)C1 (relative stereo)    ≦5 L/h/Kg
CCCS(=O)(=O)NC1CN(c2cc3c(cc2F)OC[C@H](NC)[C@H]3Cc2ccccc2)C1 (relative stereo) [Example 16b]    ≦5 L/h/Kg
Cn1cc(S(=O)(=O)NC2CN(c3ccc4c(c3)[C@H](Cc3ccccc3)[C@H](N3CCC3)CO4)C2)cn1 (relative stereo)    ≦5 L/h/Kg
O=S(=O)(NC1CN(c2cc3c(cc2F)OC[C@@H](N2CCC2)[C@H]3Cc2ccccc2)C1)c1cccnc1F (relative stereo)    ≦50 L/h/Kg
O=S(=O)(CC1CC1)NC1CN(c2ccc3c(c2)[C@H](Cc2ccccc2)[C@H](N2CCC2)CO3)C1 (relative stereo)    ≦5 L/h/Kg
CNC1COc2ccc(N3CC(NS(=O)(=O)CC4CC4)C3)cc2C1Cc1ccccc1 (single isomer, unassigned) [Example 25]    ≦5 L/h/Kg

Provide reported human mCl for each item, in the same order as listed.
1. CN[C@H]1COc2cc(F)c(N3CC(NS(=O)(=O)c4cn(C)nn4)C3)cc2[C@@H]1Cc1ccccc1 (relative stereo) [Example 18b]
2. CN[C@H]1COc2cc(F)c(N3CC(NS(=O)(=O)c4cn(C)nn4)C3)cc2[C@H]1Cc1ccccc1 (relative stereo) [Example 18a]
3. CCCS(=O)(=O)NC1CN(c2ccc3c(c2)[C@H](Cc2ccccc2)[C@H](N2CCC2)CO3)C1 (relative stereo)

≦5 L/h/Kg
≦50 L/h/Kg
≦5 L/h/Kg

----------
Could you please report measured pKi for the items listed next?
# ASSAYED_TARGET: UniProt:P48067
# Sequence (P48067 whole entry): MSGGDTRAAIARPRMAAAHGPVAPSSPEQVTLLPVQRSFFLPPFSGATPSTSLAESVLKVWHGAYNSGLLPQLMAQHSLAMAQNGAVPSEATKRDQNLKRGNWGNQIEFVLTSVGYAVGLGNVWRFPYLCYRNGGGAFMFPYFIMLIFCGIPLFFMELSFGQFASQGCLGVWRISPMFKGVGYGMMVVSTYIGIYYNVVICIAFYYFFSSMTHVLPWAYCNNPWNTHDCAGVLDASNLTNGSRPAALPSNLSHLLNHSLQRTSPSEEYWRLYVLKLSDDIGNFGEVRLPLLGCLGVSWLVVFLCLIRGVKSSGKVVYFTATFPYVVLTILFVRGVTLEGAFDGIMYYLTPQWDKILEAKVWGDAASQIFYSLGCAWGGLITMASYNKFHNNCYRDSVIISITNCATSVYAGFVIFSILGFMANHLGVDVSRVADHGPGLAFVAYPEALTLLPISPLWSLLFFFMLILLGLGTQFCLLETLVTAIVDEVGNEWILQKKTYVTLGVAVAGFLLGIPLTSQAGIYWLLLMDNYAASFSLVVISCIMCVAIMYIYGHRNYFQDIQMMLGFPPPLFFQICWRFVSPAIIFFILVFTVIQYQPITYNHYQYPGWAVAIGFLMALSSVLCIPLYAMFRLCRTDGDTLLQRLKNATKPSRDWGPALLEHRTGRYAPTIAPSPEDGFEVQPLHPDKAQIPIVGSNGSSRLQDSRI
# ASSAY_COMMENT: Radioligand binding assay using recombinant CHO cell membranes expressing human GlyT1
# CONDITION_CONTEXT: examples marked * tested as fumarate salts, read-out: radioligand binding Kiapp
pKi: −log10 of the molar value.

Before answering, review these 2 worked examples.
CCCS(=O)(=O)NC1CN(c2ccc3c(c2)[C@H](Cc2ccccc2)[C@H](N)CO3)C1 (relative stereo)    ≥ 7.00
CCCS(=O)(=O)NC1CN(c2cc3c(cc2F)OCC(NC)C3Cc2ccccc2)C1 (single isomer, unassigned) [Example 16a]    ≥ 8.00

Give one value of pKi per listed molecule.
1. CNC1COc2cc(F)c(N3CC(NS(=O)(=O)c4cn(C)nn4)C3)cc2C1Cc1ccccc1 (single isomer, unassigned) [Example 18b]
2. CCCS(=O)(=O)NC1CN(c2ccc3c(c2)[C@H](Cc2ccccc2)[C@H](NCC2CC2)CO3)C1 (relative stereo)
3. CCCS(=O)(=O)NC1CN(c2cc3c(cc2F)OCC(NC)C3Cc2ccccc2)C1 (single isomer, unassigned) [Example 27]

["≥ 8.00", "≥ 6.00", "≥ 8.00"]
